SYSTEM NAME: T1, EsCas13d, nuclease-dead (Eubacterium siraeum, UniProt B0MS50, R295A;H300A;R849A;H854A)
T1 sequence: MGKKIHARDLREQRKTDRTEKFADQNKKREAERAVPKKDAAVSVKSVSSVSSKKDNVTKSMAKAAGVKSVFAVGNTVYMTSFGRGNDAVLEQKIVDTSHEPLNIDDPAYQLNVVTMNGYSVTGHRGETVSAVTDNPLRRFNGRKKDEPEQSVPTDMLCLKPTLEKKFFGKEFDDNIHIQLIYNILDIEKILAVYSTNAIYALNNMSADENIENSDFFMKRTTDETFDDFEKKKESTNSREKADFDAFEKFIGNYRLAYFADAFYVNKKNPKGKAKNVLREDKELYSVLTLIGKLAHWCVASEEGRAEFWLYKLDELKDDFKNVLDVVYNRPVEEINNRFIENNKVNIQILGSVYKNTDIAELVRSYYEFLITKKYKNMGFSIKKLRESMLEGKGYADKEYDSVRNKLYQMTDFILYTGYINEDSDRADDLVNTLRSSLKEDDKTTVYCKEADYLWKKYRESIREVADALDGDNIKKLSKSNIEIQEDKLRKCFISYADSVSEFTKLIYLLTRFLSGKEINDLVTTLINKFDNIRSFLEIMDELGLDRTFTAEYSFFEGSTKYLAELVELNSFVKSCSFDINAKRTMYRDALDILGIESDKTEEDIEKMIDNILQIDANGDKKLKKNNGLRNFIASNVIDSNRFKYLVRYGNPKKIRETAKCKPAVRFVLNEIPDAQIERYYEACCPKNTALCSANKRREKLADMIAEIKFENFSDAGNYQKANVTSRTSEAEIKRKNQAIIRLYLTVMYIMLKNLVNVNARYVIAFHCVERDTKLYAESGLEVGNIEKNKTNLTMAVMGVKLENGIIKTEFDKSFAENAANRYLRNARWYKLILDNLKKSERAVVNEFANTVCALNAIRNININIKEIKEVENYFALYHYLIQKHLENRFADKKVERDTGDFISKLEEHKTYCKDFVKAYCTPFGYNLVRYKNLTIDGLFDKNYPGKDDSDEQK
PROTOCOL NOTES: crRNA (strand 1, pre-loaded); Mg2+; 40 mM Tris-HCl pH 7.5, 150 mM NaCl, 6 mM MgCl2, 1 mM DTT, 0.1% Tween-20, 0.2 mg/ml BSA; 25 C; 10 min per concentration, then washed
STUDY CONDITIONS: tags: His6-TwinStrep-SUMO cleaved; N-terminal SNAP kept (SNAP-Surface 488); label: 3' end held by stalled T7 RNA polymerase
pKd: −log10 of the molar value.

| BINDER | pKd |
| --- | --- |
| target 1 U11G,A16U (mixed) RNA 1: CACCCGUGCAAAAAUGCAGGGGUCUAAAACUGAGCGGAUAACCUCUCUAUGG RNA 2: GGGAAUGGAUCCACAUCUACGAAUUCGUACCAUAGUGAGGGUAUCCGCUCACCGAGAUCGGAAGAGCACACGU | 7.09 |
